src = ChEMBL document CHEMBL1125057

test system: Rattus norvegicus; assay: Systolic blood pressure was measured at intervals from 1 to 6 hr in groups of six rats after oral administration of a dose of 3 mg/kg; assay type: functional
quantity_name: Decrease in blood pressure (%)
# value in %; strip the unit string

Query block: Check Rattus norvegicus data and give Decrease in blood pressure for CCOC(=O)NC1c2cc(C#N)ccc2OC(C)(C)[C@H]1O (stereo partly drawn) .
Result block: 22

Query block: Enter recorded Decrease in blood pressure with Rattus norvegicus for CC(N/C(=N\C#N)Nc1ccncc1)C(C)(C)C (stereo not drawn) [PINACIDIL ANHYDROUS] here.
Result block: 39

Query block: Jot down Decrease in blood pressure (Rattus norvegicus) of C/N=C(/S)NC1c2cc(C#N)ccc2OC(C)(C)[C@H]1O (stereo partly drawn) .
Result block: 33

Query block: Name the recorded Decrease in blood pressure of CCCCC(=O)NC1c2cc(C#N)ccc2OC(C)(C)[C@H]1O (stereo partly drawn) , assay system Rattus norvegicus.
Result block: 18

Query block: Recall the reported Decrease in blood pressure of CC(=O)NC1=CC(C)(C)Oc2ccc(C#N)cc21 on Rattus norvegicus and write it down.
Result block: 52

Query block: State recorded Decrease in blood pressure with Rattus norvegicus, entry CCCN(C(C)=O)C1c2cc(C#N)ccc2OC(C)(C)[C@H]1O (stereo partly drawn) , no comment.
Result block: 58

Query block: # lookup: Rattus norvegicus Decrease in blood pressure, key = CC(=O)Nc1cc2c(cc1[N+](=O)[O-])OC(C)(C)[C@@H](O)C2NC(C)=O (stereo partly drawn)
Result block: 16

Query block: Enter Decrease in blood pressure (test system Rattus norvegicus) for CC1(C)Oc2ccc(C#N)cc2C(NC(N)=O)[C@@H]1O (stereo partly drawn)
Result block: 46

----------
species: Oryctolagus cuniculus; experiment: Increase in rubidium-86 efflux in rabbit isolated mesenteric artery over basal rate; type: functional
This listing pairs compounds with measured Increase.

[[record]]
compound = "CC(=O)NC1c2cc(C#N)ccc2OC(C)(C)[C@H]1O (some centres not stated)"
quantity_name = "Increase"
readout_value = "59%"

[[record]]
compound = "CNC(=O)NC1c2cc(C#N)ccc2OC(C)(C)[C@H]1O (some centres not stated)"
quantity_name = "Increase"
readout_value = "63%"

[[record]]
compound = "CC1(C)Oc2ccc(C#N)cc2C(N2CCCC2=O)C1O (configuration not stated) [CROMAKALIM]"
quantity_name = "Increase"
readout_value = "110%"

[[record]]
compound = "CC1(C)Oc2ccc(C#N)cc2C(NC(=O)c2ccc3ccccc3c2)[C@@H]1O (some centres not stated)"
quantity_name = "Increase"
readout_value = "17%"


Query block: Supply Increase value. Item: CC1(C)Oc2ccc(C#N)cc2C(NC(=O)c2ccccn2)[C@@H]1O (some centres not stated)
Result block: 53%

Query block: Provide only the value of recorded Increase for CC(N/C(=N\C#N)Nc1ccncc1)C(C)(C)C (configuration not stated) [PINACIDIL ANHYDROUS]
Result block: 72%

Query block: // Input: CC(=O)NC1c2cc(C(C)=O)ccc2OC(C)(C)[C@H]1O (some centres not stated) . Output its Increase only.
Result block: 38%

----------
test system: Rattus norvegicus; test: Systolic blood pressure was measured at intervals from 1 to 6 hr in groups of six rats after oral administration of a dose of 1 mg/kg; assay type: functional
quantity_name: Decrease in blood pressure (%)
Supply the numeric figure in %, leaving out any unit text.

[[record]]
compound = "CCCN(C(C)=O)C1c2cc(C#N)ccc2OC(C)(C)[C@H]1O (some centres not stated)"
reading_unit = "%"
readout_value = 24


Query block: Provide measured Decrease in blood pressure on Rattus norvegicus for CC1(C)Oc2ccc(C#N)cc2C(NC(=O)NC(=O)C(Cl)(Cl)Cl)[C@@H]1O (some centres not stated) please.
Result block: 13

Query block: Please look at C/N=C(/S)NC1c2cc(C#N)ccc2OC(C)(C)[C@H]1O (some centres not stated) and tell me its recorded Decrease in blood pressure on Rattus norvegicus.
Result block: 16

Query block: State recorded Decrease in blood pressure with Rattus norvegicus, entry CCOC(=O)NC1c2cc(C#N)ccc2OC(C)(C)[C@H]1O (some centres not stated) , no comment.
Result block: 13

Query block: Give Decrease in blood pressure; test system Rattus norvegicus; compound CC(=O)NC1=CC(C)(C)Oc2ccc(C#N)cc21
Result block: 20

Query block: Using Rattus norvegicus as the test system, report measured Decrease in blood pressure of CC(=O)NC1c2cc(Cl)ccc2OC(C)(C)[C@H]1O (some centres not stated) .
Result block: 8

Query block: # return Decrease in blood pressure of CC1(C)Oc2ccc(C#N)cc2C(NC(=O)c2ccc3ccccc3c2)[C@@H]1O (some centres not stated) (system: Rattus norvegicus)
Result block: 6
